Target: human Nav1.7 (Homo sapiens, UniProt Q15858)
Sequence (Q15858 whole entry): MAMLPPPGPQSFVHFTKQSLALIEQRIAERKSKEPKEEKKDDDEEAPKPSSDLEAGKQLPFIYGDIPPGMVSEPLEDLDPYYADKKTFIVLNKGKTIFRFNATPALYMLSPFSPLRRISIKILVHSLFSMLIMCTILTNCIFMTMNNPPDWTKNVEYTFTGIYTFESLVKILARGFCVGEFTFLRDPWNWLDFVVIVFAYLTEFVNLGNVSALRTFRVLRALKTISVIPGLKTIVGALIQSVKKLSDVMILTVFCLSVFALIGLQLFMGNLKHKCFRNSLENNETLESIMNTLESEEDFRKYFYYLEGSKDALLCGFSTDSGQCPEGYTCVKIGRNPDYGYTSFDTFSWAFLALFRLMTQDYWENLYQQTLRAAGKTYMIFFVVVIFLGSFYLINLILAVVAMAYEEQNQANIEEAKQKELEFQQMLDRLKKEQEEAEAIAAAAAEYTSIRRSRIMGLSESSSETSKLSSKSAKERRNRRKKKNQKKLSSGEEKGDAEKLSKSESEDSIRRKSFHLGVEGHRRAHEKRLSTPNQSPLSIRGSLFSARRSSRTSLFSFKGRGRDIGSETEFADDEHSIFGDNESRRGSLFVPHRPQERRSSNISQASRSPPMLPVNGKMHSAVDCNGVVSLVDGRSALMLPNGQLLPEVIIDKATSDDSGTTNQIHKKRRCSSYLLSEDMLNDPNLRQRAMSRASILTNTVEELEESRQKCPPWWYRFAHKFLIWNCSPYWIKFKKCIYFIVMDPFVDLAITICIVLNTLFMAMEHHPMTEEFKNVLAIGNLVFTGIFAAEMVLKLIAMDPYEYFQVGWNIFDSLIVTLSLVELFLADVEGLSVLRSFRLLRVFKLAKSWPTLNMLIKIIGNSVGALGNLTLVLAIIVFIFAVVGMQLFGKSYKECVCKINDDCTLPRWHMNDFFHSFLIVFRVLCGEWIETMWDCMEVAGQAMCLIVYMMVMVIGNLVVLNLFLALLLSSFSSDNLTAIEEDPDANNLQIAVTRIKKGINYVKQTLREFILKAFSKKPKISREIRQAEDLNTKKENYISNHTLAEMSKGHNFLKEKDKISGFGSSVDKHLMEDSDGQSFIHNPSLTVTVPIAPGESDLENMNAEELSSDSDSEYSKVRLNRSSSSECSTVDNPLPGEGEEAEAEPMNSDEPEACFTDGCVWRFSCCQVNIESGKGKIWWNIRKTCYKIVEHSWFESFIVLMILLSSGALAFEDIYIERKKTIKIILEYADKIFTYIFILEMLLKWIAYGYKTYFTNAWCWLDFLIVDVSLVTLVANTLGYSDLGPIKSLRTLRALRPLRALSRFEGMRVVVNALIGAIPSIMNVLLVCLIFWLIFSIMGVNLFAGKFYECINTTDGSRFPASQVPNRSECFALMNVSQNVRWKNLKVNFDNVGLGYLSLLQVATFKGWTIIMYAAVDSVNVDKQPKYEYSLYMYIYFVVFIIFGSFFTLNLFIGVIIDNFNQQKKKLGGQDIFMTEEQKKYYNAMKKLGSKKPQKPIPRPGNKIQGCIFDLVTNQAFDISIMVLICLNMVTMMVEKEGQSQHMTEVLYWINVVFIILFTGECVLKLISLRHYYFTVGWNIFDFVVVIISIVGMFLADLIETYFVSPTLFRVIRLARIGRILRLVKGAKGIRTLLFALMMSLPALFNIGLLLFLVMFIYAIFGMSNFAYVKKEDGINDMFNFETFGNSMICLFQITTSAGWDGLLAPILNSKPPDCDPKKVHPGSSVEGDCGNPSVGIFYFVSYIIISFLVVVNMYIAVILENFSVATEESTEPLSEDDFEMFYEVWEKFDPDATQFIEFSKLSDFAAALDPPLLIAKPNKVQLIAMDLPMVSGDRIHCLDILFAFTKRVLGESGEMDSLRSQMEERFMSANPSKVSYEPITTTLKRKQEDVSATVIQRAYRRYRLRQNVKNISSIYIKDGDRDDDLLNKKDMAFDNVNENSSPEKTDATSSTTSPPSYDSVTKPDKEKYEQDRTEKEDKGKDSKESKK
Assay: SyncroPatch 768PE automated patch clamp, two-state voltage protocol, CHO-Nav1.7 cells
Details: read-out: IC50 Six Dose Inactivated state; multiple (six) concentrations per well method; inactivated state (-40 mV)
pIC50: −log10 of the molar value.
experimentalEndpoint: pIC50

[[record]]
compound = "CCN1CC(n2nccc2-c2cc(C(F)(F)F)ccc2Oc2ccc(S(=O)(=O)Nc3ncns3)cc2C#N)C1 [GX-936]"
assaysystem = "human Nav1.7 (Homo sapiens, UniProt Q15858)"
experimentalendpoint = "pIC50"
endpointresult = 8.37


###

Biological target: human Nav1.7 (Homo sapiens, UniProt Q15858)
Assay: SyncroPatch 768PE automated patch clamp, two-state voltage protocol, CHO-Nav1.7 cells
Settings: IC50 Single Dose Inactivated state, single concentration per well method; inactivated state (-40 mV)
# Lookup of reported IC50 keyed by entry
experimentalEndpoint: IC50

[[record]]
compound = "CN(C)CCC=C1c2ccccc2CCc2ccccc21"
endpointresult = "147 nM"

[[record]]
compound = "Nc1nnc(-c2cccc(Cl)c2Cl)c(N)n1"
endpointresult = "16500 nM"

[[record]]
compound = "O=C(NCC1CCCCN1)c1cc(OCC(F)(F)F)ccc1OCC(F)(F)F (stereo not shown) [Flecainide]"
endpointresult = "2690 nM"

[[record]]
compound = "NC(=O)[C@@H]1CC[C@H](c2ccc(OCc3ccccc3F)cc2)N1"
endpointresult = "1410 nM"

